system: TMEM229B
protocol-details: pooled miR-30 sensor sort-seq; sequence = guide strand; note: reference of the scale not given here
test-settings: shRNA
experimental-endpoint: sensor-assay potency score (higher = more potent)
Answer as a number with no unit attached.

> print(dat)
           sequence.entry  readout.number
1  TTGCGGATGATGAACTGCTCCA          -0.427
2  AAGTTCACCACGAACTCCCAGG          -0.691
3  TGAAGTCAAAGTCGAACTGGGA          -0.249
4  TCAGCGTCCTTGTCGAAGCGGA          -0.896
5  TCACCTCGCAGAAGTAGCCGTG           -0.46
6  ATGGCATACAGGTACCAGCGGG            -1.1

Q: Entry under review: `TCCACGATGAGGATGGAGGTGC` . Reported sensor-assay potency score (higher = more potent)?
Ans: -1.19

----------
system: RGS13
protocol-details: pooled miR-30 sensor sort-seq; sequence = guide strand
test-settings: shRNA
experimental-endpoint: sensor-assay potency score (higher = more potent)
Answer as a number with no unit attached.

> print(dat)
           sequence.entry  readout.number
1  TCTGACTTTAGAAATCTGGGGT           0.865
2  TAGGTTTCACATGCCATCCAGA          -0.935
3  ATGATAGTCTCTCTTGTCGAAC           -1.51
4  TAGTCTCTCTTGTCGAACTGTC          -0.609
5  TTGAATATTCTCGTCACTGTGC           0.436

Q: Entry under review: `ATAGTCTCTCTTGTCGAACTGT` . Reported sensor-assay potency score (higher = more potent)?
Ans: -0.257

----------
system: DUSP22
protocol-details: pooled miR-30 sensor sort-seq; sequence = guide strand
test-settings: shRNA
experimental-endpoint: sensor-assay potency score (higher = more potent)
Answer as a number with no unit attached.

> print(dat)
           sequence.entry  system  readout.number
1  AATATGTGTCACCTTGTTCTTG  DUSP22           -0.44

Q: Entry under review: `TCTTCCTTCAGCCACTGCCGAT` . Reported sensor-assay potency score (higher = more potent)?
Ans: -1.53

Q: Next sequence: `TTAGTTCTCAACATAAACATGA`
Ans: -0.0599

Q: Next sequence: `TACTTAAACTCTATGTTGCTTT`
Ans: -0.452

Q: Next sequence: `ATATGTGTCACCTTGTTCTTGC`
Ans: 0.858

----------
This section presents sequences with their documented sensor-assay potency score (higher = more potent) values.
system: LRRC15
protocol-details: pooled miR-30 sensor sort-seq; sequence = guide strand
test-settings: shRNA

Illustrative cases are given below, each with its answer.
> print(dat)
           sequence.entry  result
1  TTGAGCAGGAGCCAGTTGCGGA  -0.932
2  TCTTGCAGCAGCAACAGCCGAC  -0.387
3  TTCTTCTCAATCCTCAGGGCGA   -1.09
4  TAGTCAGATCAGTGTAGTCTTC   -1.03

Q: Entry under review: `TTGGACAGGTAGAGTCTCTGGA` . Reported sensor-assay potency score (higher = more potent)?
Ans: 0.0615

Q: Next sequence: `TTGCTGAAGACATTGTCGGGTA`
Ans: 0.015

Q: Next sequence: `TTGAGTTCAGTGATGTGCGTGT`
Ans: 0.975

----------
This section presents sequences with their documented sensor-assay potency score (higher = more potent) values.
system: WRAP73
protocol-details: pooled miR-30 sensor sort-seq; sequence = guide strand
test-settings: shRNA

Illustrative cases are given below, each with its answer.
> print(dat)
           sequence.entry  result
1  TTATACACCACTATCTTGGGAT   0.881
2  TACGTGGACAACAACCGGCCAT   -0.35
3  TAATCTTTGCAGTCGCGCCGTT  -0.556

Q: Entry under review: `TTTCGGGTTTGCTCTGTCGGTA` . Reported sensor-assay potency score (higher = more potent)?
Ans: -0.96

Q: Next sequence: `TTGGGAATGTTGTCGTTCCTTG`
Ans: -0.237

Q: Next sequence: `TTGCTCTGTCGGTAACAGGTTT`
Ans: -1.05

Q: Next sequence: `TTGCTGAGGAGGGCCATCGAGT`
Ans: -1.36

Q: Next sequence: `TATTTACTCTCTGAGCTCGGGA`
Ans: -0.387

----------
system: PGR
protocol-details: pooled miR-30 sensor sort-seq; sequence = guide strand
test-settings: shRNA
# sensor-assay potency score (higher = more potent) >= -0.002 gives yes (1), anything below gives no (0)

Examples with answers:
> print(dat)
           sequence.entry  category.label
1  TTGACTTCGTAGCCCTTCCAAA          no (0)
2  TAACTTCAGACATCATTTCTGG         yes (1)

Q: Please check the record `TTGAAGCTTGACAAACTCCTGT` and state if its sensor-assay potency score (higher = more potent) is at or above -0.002.
Ans: yes (1)

Q: Next sequence: `TAGTTGATTAAGACTTGTCAGC`
Ans: no (0)

Q: Next sequence: `TCAACTGTATGTCTTGACCTGG`
Ans: no (0)

----------
system: LUC7L2
protocol-details: pooled miR-30 sensor sort-seq; sequence = guide strand
test-settings: shRNA
This section presents sequences with their documented sensor-assay potency score (higher = more potent) values.
Answer as a number with no unit attached.

Illustrative cases are given below, each with its answer.
> print(dat)
           sequence.entry  readout.number
1  TTTGGATCGAGTTCTCCTCTTG          -0.398
2  TAATCTCTTCTTGAGTTTCTGC           -0.17
3  TTTGCTGCTACTTCAGCACTAA         -0.0299
4  TCTCTTGAACTCCTGTCTCTGT          -0.457
5  TAGAACATCCTGAACATAGCAA           0.289

Attention now turns to another entry.
Q: Entry under review: `TTGAGAAGGTGACTCTTGCATA` . Reported sensor-assay potency score (higher = more potent)?
Ans: -0.354

----------
system: POLR3B
protocol-details: pooled miR-30 sensor sort-seq; sequence = guide strand
test-settings: shRNA
This section presents sequences with their documented sensor-assay potency score (higher = more potent) values.
Answer as a number with no unit attached.

> print(dat)
           sequence.entry  readout.number
1  TTTATTAATTGTGTGTTCGTAC           0.467
2  TATCCTTTAGGTCACATCCATC           -1.12
3  TTAAGTACCACATAGGGTCAGC          -0.683

Q: Entry under review: `TATATGAGTCTGTTGCTCCTTT` . Reported sensor-assay potency score (higher = more potent)?
Ans: 0.252

Q: Next sequence: `TAAATTTTTTGAACAAGTCTTC`
Ans: -0.054

----------
This section presents sequences with their documented sensor-assay potency score (higher = more potent) values.
system: C1orf114
protocol-details: pooled miR-30 sensor sort-seq; sequence = guide strand
test-settings: shRNA
Answer as a number with no unit attached.

> print(dat)
           sequence.entry  readout.number
1  TACTATGTCATTCTCTCTCTTT          -0.145
2  TAGTAGTGTCTTCTAGTGGAGG          -0.965
3  TTAGCTTCTAGTCGGAGCTGTC          -0.331
4  TTGGTTAATATTCTCTTCCTTC          -0.217
5  TTCTCCATAATATATCTCCTTA           -0.58
6  TTCTTGTCCAAAATCATTGGAA          -0.446

Q: Entry under review: `TTCTAGTGGAGGAACTTCCAAA` . Reported sensor-assay potency score (higher = more potent)?
Ans: -0.899

----------
system: ZNF24
protocol-details: pooled miR-30 sensor sort-seq; sequence = guide strand
test-settings: shRNA
experimental-endpoint: sensor-assay potency score (higher = more potent)
Answer as a number with no unit attached.

> print(dat)
           sequence.entry  readout.number
1  TTCTGCATTGTGTCTTCTCTGA        0.000948

Q: I'm curious: which sensor-assay potency score (higher = more potent) was measured for `TAAAAATTTGAGGAACACCCAT` tested on ZNF24?
Ans: -0.488

Q: Next sequence: `TGGATGATGATCTCGAACCCAA`
Ans: -0.874

----------
system: FPGT-TNNI3K
protocol-details: pooled miR-30 sensor sort-seq; sequence = guide strand
test-settings: shRNA
experimental-endpoint: sensor-assay potency score (higher = more potent)
Answer as a number with no unit attached.

Illustrative cases are given below, each with its answer.
> print(dat)
           sequence.entry       system  readout.number
1  TTCTTTTTCCTTGATCTGCAGG  FPGT-TNNI3K          -0.729
2  TTTATTTCTGCATCGTCCTTTA  FPGT-TNNI3K          -0.351
3  TTAATTTAGACTGCAAATCAAG  FPGT-TNNI3K           -1.11
4  TTACATTTACATCAGCACCAAA  FPGT-TNNI3K           -1.01

Attention now turns to another entry.
Q: I'm curious: which sensor-assay potency score (higher = more potent) was measured for `TTGACTAGGTCAATGCTCTTGC` tested on FPGT-TNNI3K?
Ans: 0.745
